B1: ZER1 (parent)
chain: PILRLLPQGISPVSQHWATWALYN

# Variants of: B1
# EXPERIMENT NOTES: protein stability index of a GFP-peptide fusion (GPS, HEK-293T) (PSI 1-6); higher = more stable;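 further: lentivirally expressed fusions sorted by FACS into six bins by GFP to DsRed ratio, PSI derived from sequencing read proportions per bin multiplied by bin number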
# CONDITION DESCRIPTION: c terminus: a fixed tail appended
Measured protein stability index values are reported for all entries that follow.
Answer as a number with no unit attached.

Use the examples below as a reference point.
1) W17V | 2.59
2) P7C | 2.12
3) L3Q | 1.62
4) L3G | 1.44
5) W20R | 1.64
6) L3A | 3.7

# input I have this variant here, "L22N" , and I need its recorded protein stability index.
# output 1.88
